target: hCB2 (Homo sapiens); assay: Tango β-arrestin-2 recruitment assay, HTLA cells; format: cell-based; parameters: expressed in transfected cells; host or cells: HTLA (transient); conditions: HTLA, read-out: hCB2 Tango ß-arrestin recruitment Emax [95% CI]
Sequence (P34972 whole entry): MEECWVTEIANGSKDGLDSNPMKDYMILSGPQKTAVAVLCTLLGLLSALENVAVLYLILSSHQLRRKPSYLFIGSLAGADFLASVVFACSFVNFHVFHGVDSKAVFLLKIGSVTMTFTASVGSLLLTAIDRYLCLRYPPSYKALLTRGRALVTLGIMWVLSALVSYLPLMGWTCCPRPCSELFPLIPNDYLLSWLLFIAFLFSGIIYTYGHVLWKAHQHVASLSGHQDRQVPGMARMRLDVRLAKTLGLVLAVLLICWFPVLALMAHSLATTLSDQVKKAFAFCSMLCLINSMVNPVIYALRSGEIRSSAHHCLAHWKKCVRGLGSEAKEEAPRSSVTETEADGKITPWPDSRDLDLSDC
Criterion: Emax strictly less than 30%. Met: rule met. Not met: rule not met.

Previously resolved entries follow.
[
  {
    "molecule": "COC(=O)C(NC(=O)c1cc(C)n(-c2cccc(C(F)(F)F)c2)n1)c1cccs1 (stereo not drawn)",
    "target.or.test.system": "hCB2 (Homo sapiens)",
    "answer.label": "rule met"
  },
  {
    "molecule": "CCCCCCC(C)(C)c1ccc([C@@H]2C[C@H](O)CC[C@H]2CCCO)c(O)c1 [CP-55,940, reference compound]",
    "target.or.test.system": "hCB2 (Homo sapiens)",
    "answer.label": "rule not met"
  },
  {
    "molecule": "COC(=O)[C@@H]1[C@@H]2CCC[C@@H]2CN1C(=O)c1cc(C)n(-c2cccc(C(F)(F)F)c2)n1",
    "target.or.test.system": "hCB2 (Homo sapiens)",
    "answer.label": "rule met"
  },
  {
    "molecule": "COC(=O)[C@@H]1[C@@H]2CCC[C@@H]2CN1C(=O)c1cc(C)n(-c2cccc(Cl)c2)n1",
    "target.or.test.system": "hCB2 (Homo sapiens)",
    "answer.label": "rule met"
  },
  {
    "molecule": "COC(=O)C(C)(NC(=O)c1cc(C)n(-c2cccc(C(F)(F)F)c2)n1)c1cccs1 (stereo not drawn)",
    "target.or.test.system": "hCB2 (Homo sapiens)",
    "answer.label": "rule met"
  }
]

# next molecule below
Report whether reported Emax is lower than 30% (strictly) for Cc1cc(C(=O)N2CC3(CCC3)C2C2CCCO2)nn1-c1cccc(C(F)(F)F)c1 (stereo not drawn)
rule met

* * *

biological target: hCB1 (Homo sapiens, UniProt P21554); experiment: bioSens-All ebBRET effector biosensor signaling profiling, HEK293; format: cell-based; design: host or cells: HEK293 (HEK293SL clone), transient; details: HEK293, read-out: hCB1 GoB Emax [95% CI]
Sequence (P21554 whole entry): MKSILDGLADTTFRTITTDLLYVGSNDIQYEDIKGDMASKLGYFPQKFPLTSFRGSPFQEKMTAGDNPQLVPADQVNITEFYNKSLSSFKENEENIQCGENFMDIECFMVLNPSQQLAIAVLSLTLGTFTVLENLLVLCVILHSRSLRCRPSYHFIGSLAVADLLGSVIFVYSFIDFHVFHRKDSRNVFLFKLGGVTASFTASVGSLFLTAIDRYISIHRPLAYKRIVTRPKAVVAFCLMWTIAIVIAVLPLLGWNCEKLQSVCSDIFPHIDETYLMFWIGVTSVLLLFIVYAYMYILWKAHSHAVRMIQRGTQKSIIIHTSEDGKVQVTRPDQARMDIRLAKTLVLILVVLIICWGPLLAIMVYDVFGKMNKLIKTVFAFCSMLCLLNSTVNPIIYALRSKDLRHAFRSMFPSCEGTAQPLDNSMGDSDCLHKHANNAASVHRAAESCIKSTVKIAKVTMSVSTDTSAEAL
measured.property: Emax (%)
Express it in %; write the number only.

[
  {
    "molecule": "COC(=O)[C@](C)(NC(=O)c1cc(C)n(-c2cccc(C(F)(F)F)c2)n1)c1cccs1",
    "Emax, %": 83
  },
  {
    "molecule": "Cc1nn(Cc2ccc(Cl)cc2)c(C)c1C(=O)OCC1CSc2ccccc2O1 (centres unmarked)",
    "Emax, %": 32
  },
  {
    "molecule": "COC(=O)[C@@H]1[C@@H]2CCC[C@@H]2CN1C(=O)c1cc(C)n(-c2cccc(Cl)c2)n1",
    "Emax, %": 71
  },
  {
    "molecule": "Cc1cc(C(=O)N2CC3(CCC3)[C@H]2[C@@H]2CCCO2)nn1-c1cccc(C(F)(F)F)c1 [‘3737a]",
    "Emax, %": 118
  },
  {
    "molecule": "Cc1cc(C(=O)NC(c2ccccc2)c2ccco2)nn1-c1cccc(C(F)(F)F)c1 (centres unmarked)",
    "Emax, %": 45
  }
]

# Emax of COC(=O)C(NC(=O)c1cc(C)n(-c2cccc(C(F)(F)F)c2)n1)c1cccs1 (centres unmarked) = 100

Input COC(=O)C(NC(=O)c1cc(C)n(-c2cccc(F)c2)n1)c1cccs1 (centres unmarked) . Output Emax: 74

// Emax value for COC(=O)[C@@](C)(NC(=O)c1cc(C)n(-c2cccc(C(F)(F)F)c2)n1)c1cccs1 : 98
